target entity: Insulin-degrading enzyme (Homo sapiens)
experiment: exo-site inhibitors of human IDE, primary screen, biochemical, fluorescence anisotropy, probe displacement (AID 1259349);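 further: His-tagged human IDE residues 42-1019 made in E. coli with 30 nM FL-6b probe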
condition notes: purified IDE, FL-6b probe fluorescence polarization; at 20 µM; hits give low values
Hit rate of the full screen: of about 17,000 compounds, about 1,100 (6.5%) were called active. The full list was thinned out, with actives kept by preference.
measured property: z-score
Would you mind answering with just the numeric figure?

What does the data say about its z-score? Entry: C[C@@H]1COCc2cn(nn2)CC[C@H](C)C(=O)N1
0.508

Entry COc1ccccc1-c1ccc([C@@H]2[C@@H](CO)N3CCCCN(C(=O)c4ccncc4)C[C@@H]23)cc1 has what z-score?
-4.74

Can you share its z-score? I mean this compound: O=C(c1ccncc1)N1CC(=O)N2[C@H](CO)[C@H](c3ccc(-c4ccccc4F)cc3)[C@@H]2C1
0.944

Recorded z-score of CC(C)NC(=O)N1CCCCN2[C@@H](CO)[C@@H](c3ccc(C#Cc4ccccc4)cc3)[C@@H]2C1 , please.
-8.05

I have this compound here, CNC[C@H]1OCCCC[C@@H](C)Oc2ccc(NS(=O)(=O)c3ccc(F)cc3)cc2C(=O)N([C@H](C)CO)C[C@H]1C , and I need its recorded z-score.
0.482

Item O=C1NCCCOCc2cn(nn2)CC[C@@H]1Cc1ccc(-c2ccccc2)cc1 has what recorded z-score?
-0.0302

Consider the compound shown here: Cc1noc(C)c1S(=O)(=O)Nc1ccc2c(c1)C(=O)N([C@@H](C)CO)C[C@@H](C)[C@H](CN(C)C(=O)Nc1cccc3ccccc13)OCCCC[C@H](C)O2 What is its recorded z-score?
0.278

Field request: z-score | item: Cc1cccc(-c2ccc([C@@H]3[C@H](CO)N4CCCCN(C(=O)c5ccc6c(c5)OCO6)C[C@@H]34)cc2)c1
-4.42

Which z-score is listed for Cc1ccccc1-c1ccc([C@H]2[C@@H](CO)N3C(=O)CN(C(=O)c4ccncc4)C[C@H]23)cc1 ?
-10

Name the recorded z-score for COc1cccc(S(=O)(=O)Nc2ccc3c(c2)[C@@H]2C[C@@H](CC(=O)NC4CCCCC4)O[C@H](CO)[C@@H]2O3)c1 .
-0.362

Can you look up the measured z-score of COCCN(C[C@H]1[C@H](c2ccccc2)[C@@H](CO)N1C(C)=O)C(=O)c1cccnc1 for me?
-0.97

Name the recorded z-score for CC(C)C#Cc1ccc([C@H]2[C@H](CO)N3CCCCN(C(=O)NC(C)C)C[C@@H]23)cc1 .
0.103

Which measured z-score value corresponds to O=C(C[C@@H]1C=C[C@@H](NC(=O)c2ccc3c(c2)OCO3)[C@H](CO)O1)NC1Cc2ccccc2C1 ?
0.748

For the compound COCC(=O)Nc1ccc2c(c1)OC[C@@H](C)N(Cc1ccccc1C(=O)O)C[C@@H](C)[C@H](OC)CN(C)C2=O , what z-score is on record?
1.82

Item under review: COc1ccc2c3c(n(C)c2c1)[C@@H](CO)N(Cc1ccccc1F)CC31CCN(C(=O)C2CCOCC2)CC1 . Reported z-score?
-2.72

Can you share its z-score? I mean this compound: CC(C)C#Cc1ccc([C@@H]2[C@H]3CN(C(=O)NC(C)C)CCCCN3[C@H]2CO)cc1
1

Data origin: PubChem BioAssay AID1259349
